Assay: NCI Yeast Anticancer Drug Screen. Data for the mlh1 rad18 strain (AID 175)
Conditions: S. cerevisiae mlh1 rad18 strain growth inhibition; at 50.0 µM
This is part of a sample that, as a whole, favours compounds with a hit. Of some 79,000 tested, about 15% had one in any assay. The source made the active and inactive calls. No stated cut-off is given here; in the data, active means growth inhibition above about 70%; inactive means the rest.
Classes used: true for active, false for inactive

[[record]]
compound = "O=C(O)c1ccc(CSc2ccc(Cl)cc2)cc1"
answer_label = "true"

[[record]]
compound = "C(=N\\Nc1c2ccccc2nc2ccccc12)/c1ccc2c(c1)OCO2"
answer_label = "true"

[[record]]
compound = "C=CC(=C)OC"
answer_label = "false"

[[record]]
compound = "Nc1ccc(C(=O)Oc2cccccc2=O)cc1"
answer_label = "true"

[[record]]
compound = "COc1ccc(C(=O)OC(=O)c2ccc(OC)cc2)cc1"
answer_label = "true"

[[record]]
compound = "O=C1C(Cl)=C(c2ccccc2)C1Cl (stereo unspecified)"
answer_label = "true"

[[record]]
compound = "CCOC(=O)C1=C(C)NC(=O)NC1c1coc2cc(C)cc(C)c2c1=O (stereo unspecified)"
answer_label = "false"

[[record]]
compound = "Cc1ccc(O)c(N=Nc2ccc(Cl)cc2)c1"
answer_label = "false"

[[record]]
compound = "O=C(NN=C1CCCCC1)c1ccc([N+](=O)[O-])cc1"
answer_label = "false"

[[record]]
compound = "CCCCC(CC)(COC(C)=O)COC(C)=O"
answer_label = "false"

[[record]]
compound = "CCN(CC)CC(O)CNc1cc(C)nc(/N=C(\\N)Nc2ccc(Cl)c(Cl)c2)n1 (stereo unspecified)"
answer_label = "true"

[[record]]
compound = "CCOC1=C(c2ccccc2)Sc2ccc(C)cc2C1c1ccc(C)cc1 (stereo unspecified)"
answer_label = "true"

[[record]]
compound = "O=C1c2cc(Br)cc(Br)c2NCCC1(Br)Br"
answer_label = "true"

[[record]]
compound = "Cc1ccc(S(=O)(=O)NC(CCC(=O)Nc2ccccc2)C(=O)O)cc1 (stereo unspecified)"
answer_label = "false"

[[record]]
compound = "CCC#CC(O)(C(=O)OCC)C1CCCC1 (stereo unspecified)"
answer_label = "false"

[[record]]
compound = "O=C1OC(c2ccccc2)N/C1=C\\c1ccc2c(c1)OCO2 (stereo unspecified)"
answer_label = "false"

[[record]]
compound = "C/C(=N\\NC(=S)N1CC(C)OC(C)C1)c1ncccn1 (stereo unspecified)"
answer_label = "true"

[[record]]
compound = "Cc1ccc(C2(C)CC/C(=N/O)c3cc(C)c(C)cc32)cc1C (stereo unspecified)"
answer_label = "true"

[[record]]
compound = "Cc1ccc(N2C(N)=C(C#N)C(C#N)(C#N)C2c2ccccc2)cc1 (stereo unspecified)"
answer_label = "true"

[[record]]
compound = "CC1OC(OP(=O)(OCc2ccccc2)OCc2ccccc2)C(OC(=O)c2ccccc2)C(OC(=O)c2ccccc2)C1I (stereo unspecified)"
answer_label = "true"

[[record]]
compound = "Cc1cc(C[P+](c2ccccc2)(c2ccccc2)c2ccccc2)c(C)cc1C[P+](c1ccccc1)(c1ccccc1)c1ccccc1"
answer_label = "true"

[[record]]
compound = "N#CC(=C1C=CC(=NOC(=O)Nc2ccccc2)C=C1)c1ccccc1"
answer_label = "true"

[[record]]
compound = "O=S1OCCS1 (stereo unspecified)"
answer_label = "true"

[[record]]
compound = "CCOC(=O)Nc1nc2ccc(SC#N)cc2s1"
answer_label = "false"

[[record]]
compound = "CCCC/C=C(/CCCNCCCC)[Si](C)(C)C"
answer_label = "true"

[[record]]
compound = "c1ccc(SSc2ccccn2)nc1"
answer_label = "true"

[[record]]
compound = "Cc1cc(Br)ccc1NC(=O)/C=C/C(=O)O"
answer_label = "false"

[[record]]
compound = "CC1=CC(=O)c2c(O)c3c(c(O)c2C1=O)C1C(O)C(C3=O)C23C(=O)c4c(O)c(C)cc(O)c4C(O)=C2C(=O)CC(O)C13 (stereo unspecified)"
answer_label = "true"

[[record]]
compound = "O=C1C(Cl)=C(NCCC2CCCN3CCCCC23)C(=O)c2ccccc21 (stereo unspecified)"
answer_label = "true"

[[record]]
compound = "O=C1CC2Sc3ccccc3N=C2N1c1ccc(Cl)cc1Cl (stereo unspecified)"
answer_label = "true"

[[record]]
compound = "COC(=O)C(=O)C(/C=N/C(=S)NCCc1ccc(OC)c(OC)c1)=C(/O)c1ccc([N+](=O)[O-])cc1"
answer_label = "false"

[[record]]
compound = "O=C(Nc1ccccc1)ON=C1CCCCC1"
answer_label = "true"

[[record]]
compound = "Cc1c(O)ccc2c1OCC(c1ccc(Cl)cc1)C2 (stereo unspecified)"
answer_label = "true"

[[record]]
compound = "COc1cc(C2C(Cl)C(=O)N2NC(=O)c2ccccc2O)cc(OC)c1OC (stereo unspecified)"
answer_label = "true"

[[record]]
compound = "CCOC(=O)C1=C(N)N(S(=O)(=O)c2ccc(C)cc2)CCC(C(=O)OC)=C1"
answer_label = "false"

[[record]]
compound = "CCC[CH2][Sn]([CH2]CCC)([O]C(=O)c1cc(F)cc(F)c1)[O][Sn]([CH2]CCC)([CH2]CCC)[O]C(=O)c1cc(F)cc(F)c1"
answer_label = "true"

[[record]]
compound = "CCCCOC(=O)C(C)OC(=O)NNc1ccccc1 (stereo unspecified)"
answer_label = "false"

[[record]]
compound = "O=C1C(SCCO)=C(SCCO)C(=O)c2ccccc21"
answer_label = "true"

[[record]]
compound = "CCCCc1ccc2nc(C)cc(N=[N+]=[N-])c2c1"
answer_label = "true"

[[record]]
compound = "CC12CCC(O)CC1CCC1C2CCC2(C)C(NC(=O)N(CCCl)N=O)CCC12 (stereo unspecified)"
answer_label = "true"

[[record]]
compound = "C#CC(CC)(CC)NC(=O)NC(C)(C)C"
answer_label = "false"

[[record]]
compound = "CN1CC[N+](C)(Cc2ccc(C[N+]3(C)CC[N+](C)(Cc4ccc(CCl)cc4)CC3)cc2)CC1 (stereo unspecified)"
answer_label = "true"

[[record]]
compound = "O=C1c2ccc(O)cc2C(=O)c2c1ccc(O)c2O"
answer_label = "true"

[[record]]
compound = "CC(C)SC(=S)Nc1ccc(Cl)c([N+](=O)[O-])c1"
answer_label = "true"

[[record]]
compound = "Cc1c[nH]c2nc(C)n(-c3ccccc3)c(=N)c12"
answer_label = "false"

[[record]]
compound = "O=C1C=CC(=O)c2nc3c(nc21)[nH]c1ccccc13"
answer_label = "true"

